Target: Regulator of G-protein signaling 8 (Homo sapiens)
Experiment: small molecules altering RGS protein interactions with GNAO1 – biochemical, multiplexed beads, flow cytometry, RGS4/7/8/16/19, primary screen (AID 1504);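 note: fluorescently labeled Galpha-o bound to GDP with aluminium fluoride binding biotinylated RGS beads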
Details: multiplexed bead flow cytometry, measured here: RGS8 interaction, at 10 µM
Some of the results follow.
Parameter RGS8–Galpha-o binding response: see the listing below.

{"Compound": "C/C(=C/C(=O)N1CCN(C)CC1)C(=O)O", "RGS8–Galpha-o binding response / %": 125}
{"Compound": "COc1cc(C2/C(=C(\\O)c3ccc4c(c3)CC(C)O4)C(=O)C(=O)N2Cc2ccco2)ccc1O (centres undefined)", "RGS8–Galpha-o binding response / %": 12.8}
{"Compound": "CN(CC(=O)NC1CCCCC1)S(=O)(=O)c1cccc2cccnc12", "RGS8–Galpha-o binding response / %": 89.3}
{"Compound": "CC1(C)C=C2[C@H]3CC[C@@H]4[C@@]5(C)CCC(=O)C(C)(C)[C@@H]5CC[C@@]4(C)[C@]3(C)CC[C@@]2(C(=O)O)CC1", "RGS8–Galpha-o binding response / %": 134}
{"Compound": "O=c1[nH]c2ccccc2s1", "RGS8–Galpha-o binding response / %": 79}
{"Compound": "COCCNC(=S)N/N=C/c1c(C)[nH]c2ccccc12", "RGS8–Galpha-o binding response / %": 105}
{"Compound": "Cc1cccc(S(=O)(=O)CC(=O)Nc2nc(-c3ccccc3)cs2)c1", "RGS8–Galpha-o binding response / %": 118}
{"Compound": "COc1cc(C(=O)Nc2cc(C(F)(F)F)ccc2N2CCOCC2)ccc1O", "RGS8–Galpha-o binding response / %": 70.4}
{"Compound": "Oc1ccc(-c2onc3ccc(Cl)cc23)cc1", "RGS8–Galpha-o binding response / %": 144}
{"Compound": "CCN(CC)CCn1cnc2c1c(=O)n(CCOC(=O)c1cc(OC)c(OC)c(OC)c1)c(=O)n2C", "RGS8–Galpha-o binding response / %": 131}
{"Compound": "CN(C)CCN=c1cc(-c2ccccc2)oc2ccc(Cl)cc12", "RGS8–Galpha-o binding response / %": 102}
{"Compound": "Cc1c(CN2CCCC(C(=O)c3cccc(Cl)c3)C2)c(=O)n(-c2ccccc2)n1C (centres undefined)", "RGS8–Galpha-o binding response / %": 95}
{"Compound": "Cc1ccccc1NC(=S)N(CCCN1CCOCC1)Cc1cccs1", "RGS8–Galpha-o binding response / %": 118}
{"Compound": "Oc1ccc(N=Nc2nccs2)c(O)c1", "RGS8–Galpha-o binding response / %": 6.26}
{"Compound": "CCOc1ccc(NC(=O)CSc2nc3ccccc3c(=O)n2Cc2cccs2)cc1", "RGS8–Galpha-o binding response / %": 75.5}
{"Compound": "O=C(Nc1cccc(F)c1)c1coc(=O)c(Br)c1", "RGS8–Galpha-o binding response / %": 80.8}
{"Compound": "C=CCn1c(=NC(=O)c2cccs2)sc2cc(NC(C)=O)ccc21", "RGS8–Galpha-o binding response / %": 136}
{"Compound": "CCOC(=O)CSc1nc2c(c(=O)n(Cc3ccccc3Cl)c(=O)n2C)n1C", "RGS8–Galpha-o binding response / %": 78.5}
{"Compound": "O=C(CSc1ccc2nnc(-c3ccccc3)n2n1)N1CCCc2ccccc21", "RGS8–Galpha-o binding response / %": 112}
{"Compound": "Cc1cc(C)n(CC(O)CN(c2ccccc2)S(=O)(=O)c2ccc3ccccc3c2)n1 (centres undefined)", "RGS8–Galpha-o binding response / %": 15}
{"Compound": "CC(NC(=O)COC(=O)C1CCN(S(=O)(=O)c2ccccc2C(F)(F)F)CC1)c1ccccc1 (centres undefined)", "RGS8–Galpha-o binding response / %": 148}
{"Compound": "O=C(NC1CC1)c1ccc2c(c1)NC(=O)c1ccccc1S2", "RGS8–Galpha-o binding response / %": 98.7}
{"Compound": "CCOc1ccccc1NC(=O)c1cc(S(=O)(=O)N2CCC3(CC2)OCCO3)ccc1F", "RGS8–Galpha-o binding response / %": 33}
{"Compound": "COc1ccc(C(=O)COC(=O)c2ccc3ccccc3n2)cc1", "RGS8–Galpha-o binding response / %": 28.9}
{"Compound": "Cc1ccccc1CS(=O)(=O)CC1(O)CCN(C(=O)c2cccc(C(F)(F)F)c2)CC1", "RGS8–Galpha-o binding response / %": 100}
{"Compound": "CCN(CC)CCOc1ccc2c(c1)C(=NNC(=O)c1ccccn1)c1cc(OCCN(CC)CC)ccc1-2", "RGS8–Galpha-o binding response / %": 154}
{"Compound": "O=C(Nc1ccc(-n2ccnc2P(=O)(O)c2ccccc2)cc1)c1ccccc1Br", "RGS8–Galpha-o binding response / %": 105}
{"Compound": "NC(=O)CSc1c[nH]c2ccccc12", "RGS8–Galpha-o binding response / %": 27.5}
{"Compound": "CN1CCN(C(CNS(=O)(=O)c2cccs2)c2cccnc2)CC1 (centres undefined)", "RGS8–Galpha-o binding response / %": 10.6}
{"Compound": "CSc1ccc(CN2C(=O)NC3(CCCCCC3)C2=O)cc1", "RGS8–Galpha-o binding response / %": 97.9}
{"Compound": "O=C(Nc1ccccc1)c1cc2ccccc2[nH]1", "RGS8–Galpha-o binding response / %": 67.8}
{"Compound": "CN(C)S(=O)(=O)Oc1ccccc1C(=O)Nc1ccccc1Cl", "RGS8–Galpha-o binding response / %": 97.6}
{"Compound": "COc1cccc(C(=O)NCCSc2ccc(Br)cc2)c1", "RGS8–Galpha-o binding response / %": 20.7}
{"Compound": "CCCC1C(c2ccccc2)C(C#N)(C#N)C2(C#N)CC1(N)NC2=O (centres undefined)", "RGS8–Galpha-o binding response / %": 116}
{"Compound": "COC(=O)c1ccccc1OCC(=O)N1CCN(c2ccc(Cl)cc2)CC1", "RGS8–Galpha-o binding response / %": 132}
{"Compound": "O=C1CCC(=O)N(O)CCCCCNC(=O)CCC(=O)N(O)CCCCCNC(=O)CCC(=O)N(O)CCCCCN1", "RGS8–Galpha-o binding response / %": 55.9}
{"Compound": "Cc1cc(=O)n2[nH]c(-c3sccc3-n3c(C)ccc3C)cc2n1", "RGS8–Galpha-o binding response / %": 61.1}
{"Compound": "CCOC(=O)C1Sc2[nH]c(=O)sc2C(c2ccc(Cl)cc2)C1C(=O)OCC (centres undefined)", "RGS8–Galpha-o binding response / %": 7.38}
{"Compound": "O=C(NCc1ccc(F)cc1)C1CCC(CNc2c(N3CCOCC3)c(=O)c2=O)CC1 (centres undefined)", "RGS8–Galpha-o binding response / %": 8.33}
{"Compound": "CCn1c(CSCc2c(Cl)cccc2Cl)n[nH]c1=S", "RGS8–Galpha-o binding response / %": 55.5}
{"Compound": "Nc1ccc(C(=O)OCC(=O)NC2CCS(=O)(=O)C2)cc1[N+](=O)[O-] (centres undefined)", "RGS8–Galpha-o binding response / %": 6.98}
{"Compound": "CCCC(=O)n1nc(-c2ccccc2)nc1N", "RGS8–Galpha-o binding response / %": 20.9}
{"Compound": "CCN(CC)S(=O)(=O)c1cccc(-c2n[nH]c(=S)n2/N=C/c2ccc(C(=O)OC)cc2)c1", "RGS8–Galpha-o binding response / %": 124}
{"Compound": "CCCn1nnnc1NC(=O)COc1ccc(Cl)cc1C", "RGS8–Galpha-o binding response / %": 11.9}

---

Parameter vesicle binding response: see the listing below.
Experiment: reduced mouse 2C T cell binding to pMHC/ICAM-1 vesicles – MLPCN validation set, flow cytometry, LFA-1/ICAM-1 modulator project, pilot screen (AID 2523);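 note: mean PE anti-B7-1 fluorescence of CD8+ cells relative to row control; 100% = QL9-loaded vesicles with DMSO vehicle in the same plate row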
Conditions: 2C mouse CD8+ T cells, at 7 µM, stronger effect = lower value
Activity calls are given as the source filed them.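 The calls were made as follows: active = response below a set limit, under 55% cells CD8-positive and vesicle-bound, and CD8 cells' 90th-percentile brightness under 279; inactive = the rest.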
Outcome measure: vesicle binding response

{"Compound": "Cc1nc2ccccn2c(=O)c1CCN1CCC(C(=O)c2ccc(F)cc2)CC1", "Outcome measure": "vesicle binding response", "Recorded value": "166% (inactive)"}
{"Compound": "C[N+]1(C2CCC3CCCC2C3O)CCCCC1 (stereo not drawn)", "Outcome measure": "vesicle binding response", "Recorded value": "326% (inactive)"}
{"Compound": "O=C(Cc1ccccc1[N+](=O)[O-])NCc1ccncc1", "Outcome measure": "vesicle binding response", "Recorded value": "243% (inactive)"}
{"Compound": "C/C=C/c1ccc(OCCCCN2CC(C)CC(C)C2)c(OC)c1 (stereo not drawn)", "Outcome measure": "vesicle binding response", "Recorded value": "52.4% (inactive)"}
{"Compound": "COc1ccc(OC)c(S(=O)(=O)N2CCCc3ccccc32)c1", "Outcome measure": "vesicle binding response", "Recorded value": "124% (inactive)"}
{"Compound": "COc1cccc(NC(=O)C2CC(=O)OC23CCOC(C)(C)C3)c1 (stereo not drawn)", "Outcome measure": "vesicle binding response", "Recorded value": "24.9% (inactive)"}
{"Compound": "COC(=O)c1ccccc1NC(=O)c1ccc(COc2ccc3c(c2)CCC3)cc1", "Outcome measure": "vesicle binding response", "Recorded value": "521% (inactive)"}
{"Compound": "N/C(Cc1ccc(Cl)cc1Cl)=N\\OC(=O)c1ccc(Br)o1", "Outcome measure": "vesicle binding response", "Recorded value": "224% (inactive)"}
{"Compound": "Cc1ccc(SCC(=O)Nc2nccs2)cc1", "Outcome measure": "vesicle binding response", "Recorded value": "4850% (inactive)"}
{"Compound": "COc1ccc2cc([C@H](C)C(=O)O)ccc2c1", "Outcome measure": "vesicle binding response", "Recorded value": "222% (inactive)"}
{"Compound": "O=C(/C=C/Sc1ccccc1)c1ccccc1", "Outcome measure": "vesicle binding response", "Recorded value": "263% (inactive)"}
{"Compound": "CC(=O)NC1C(OCc2ccccc2)OC(COC(C)=O)C(OC(C)=O)C1OC(C)=O (stereo not drawn)", "Outcome measure": "vesicle binding response", "Recorded value": "183% (inactive)"}
{"Compound": "Cn1cc(CN2CCN(CCO)CC2)c(-c2ccc(Oc3ccccc3)cc2)n1", "Outcome measure": "vesicle binding response", "Recorded value": "244% (inactive)"}
{"Compound": "COc1ccc(CNC(=O)C2CCCN2C)cc1OC (stereo not drawn)", "Outcome measure": "vesicle binding response", "Recorded value": "141% (inactive)"}
{"Compound": "CCCCCC(=O)O[C@]1(C(C)=O)CC[C@H]2[C@@H]3CCC4=CC(=O)CC[C@]4(C)[C@H]3CC[C@@]21C", "Outcome measure": "vesicle binding response", "Recorded value": "153% (inactive)"}
{"Compound": "Cc1nonc1CN(C)C(=O)c1ccc(OC2CCN(C(=O)c3cccnc3)CC2)cc1", "Outcome measure": "vesicle binding response", "Recorded value": "176% (inactive)"}
{"Compound": "O=C(c1ccco1)N1CCCN(Cc2nc(-c3ccc4c(c3)OCO4)no2)CC1", "Outcome measure": "vesicle binding response", "Recorded value": "310% (inactive)"}
{"Compound": "COc1ccc2c(c1)[N+](C)(C)C(C)(C)C=C2C", "Outcome measure": "vesicle binding response", "Recorded value": "953% (inactive)"}
{"Compound": "COc1cc2cc(C)nc(Cc3cccc4ccccc34)c2cc1OC", "Outcome measure": "vesicle binding response", "Recorded value": "204% (inactive)"}
{"Compound": "O=C(O)Cc1ccc(O)c(F)c1", "Outcome measure": "vesicle binding response", "Recorded value": "175% (inactive)"}
{"Compound": "CC(C)N1C(=O)/C(=C\\c2nc3ccccc3c(=O)[nH]2)c2ccccc21", "Outcome measure": "vesicle binding response", "Recorded value": "157% (inactive)"}
{"Compound": "Cc1ccc(CN2CCN(Cc3cn[nH]c3C3CCCCC3)CC2CCO)cc1 (stereo not drawn)", "Outcome measure": "vesicle binding response", "Recorded value": "264% (inactive)"}
{"Compound": "O=C(Oc1ccc2c3c(c(=O)oc2c1)CCCC3)c1ccco1", "Outcome measure": "vesicle binding response", "Recorded value": "126% (inactive)"}
